Test system: Escherichia coli 1411
protocol.description: In vitro antibacterial activity (MIC100, two fold serial dilution, NCCLS)
Format: cell-based
protocol.conditions: Escherichia coli, 1411, 24 h, read-out: MIC100
metric.name: MIC (µg/mL)
Give the quantity in µg/mL, number only.

Input CCOC(=O)C1=C(C)NC(=O)NC1c1coc2ccccc2c1=O (centres unmarked) [Compound 4a] . Output MIC: 46

Input CCOC(=O)C1=C(C)NC(=S)NC1c1coc2ccc(OC)cc2c1=O (centres unmarked) [Compound 4e] . Output MIC: 58

Input CC1=C(C(=O)NN)C(c2coc3ccccc3c2=O)NC(=S)N1 (centres unmarked) [Compound 6b] . Output MIC: 34

Data provenance is paper PMC6017654.
